# ex vivo (% inhibition) 3 mg/kg (CMC) per entry
- System: CETP
- experiment: Ex vivo serum CETP activity after oral administration to hamsters
- Design: species or system Syrian Golden hamsters
- protocol_conditions: 3 mg/kg oral, suspension in 0.5% CMC, serum 3 hours after administration
Dear colleague, please return just the value in %, with no unit written.

// solved cases for ex vivo (% inhibition) 3 mg/kg (CMC) follow
CCOC(=O)N1c2ccc(C(F)(F)F)cc2C(N(Cc2cc(C(F)(F)F)cc(C(F)(F)F)c2)c2ncc(OCC(=O)NCC(=O)O)cn2)CC1CC (stereo not shown) [compound 3]    5.4
CCOC(=O)N1c2ccc(C(F)(F)F)cc2C(N(Cc2cc(C(F)(F)F)cc(C(F)(F)F)c2)c2ncc(OCc3ccc(C(=O)O)cc3)cn2)CC1CC (stereo not shown) [compound 1]    57.5

Asked: What measured ex vivo (% inhibition) 3 mg/kg (CMC) goes with CCOC(=O)N1c2ccc(C(F)(F)F)cc2C(N(Cc2cc(C(F)(F)F)cc(C(F)(F)F)c2)c2ncc(S(=O)(=O)CCCC(=O)O)cn2)CC1CC (stereo not shown) [compound 6] ?
Given back: 13.9

Asked: Which ex vivo (% inhibition) 3 mg/kg (CMC) value belongs to CCOC(=O)N1c2ccc(C(F)(F)F)cc2[C@@H](N(Cc2cc(C(F)(F)F)cc(C(F)(F)F)c2)c2ncc(OCCCC(=O)O)cn2)C[C@H]1CC [Compound A] ?
Given back: 79.2

Asked: Fill in: ex vivo (% inhibition) 3 mg/kg (CMC) of CCOC(=O)N1c2ccc(C(F)(F)F)cc2C(N(Cc2cc(C(F)(F)F)cc(C(F)(F)F)c2)c2ncc(OCC(=O)N(C)CC(=O)O)cn2)CC1CC (stereo not shown) [compound 4] is ___
Given back: 8.6

Asked: Give its ex vivo (% inhibition) 3 mg/kg (CMC) value. Item: CCOC(=O)N1c2ccc(C(F)(F)F)cc2C(N(Cc2cc(C(F)(F)F)cc(C(F)(F)F)c2)c2ncc(OCC(=O)N3CCCC3C(=O)O)cn2)CC1CC (stereo not shown) [compound 5]
Given back: 6.2

Asked: Query (compound): CCOC(=O)N1c2ccc(C(F)(F)F)cc2[C@@H](N(Cc2cc(C(F)(F)F)cc(C(F)(F)F)c2)c2ncc(OCc3cccc(C(=O)O)c3)cn2)C[C@H]1CC [compound 2] ; field requested: ex vivo (% inhibition) 3 mg/kg (CMC)
Given back: 38.4

* * *

- target_entity: CETP (Homo sapiens)
- Construct: from tissue; host or cells: plasma of Caucasian male subjects dosed with Compound A or placebo
- Sequence (P11597 18-493): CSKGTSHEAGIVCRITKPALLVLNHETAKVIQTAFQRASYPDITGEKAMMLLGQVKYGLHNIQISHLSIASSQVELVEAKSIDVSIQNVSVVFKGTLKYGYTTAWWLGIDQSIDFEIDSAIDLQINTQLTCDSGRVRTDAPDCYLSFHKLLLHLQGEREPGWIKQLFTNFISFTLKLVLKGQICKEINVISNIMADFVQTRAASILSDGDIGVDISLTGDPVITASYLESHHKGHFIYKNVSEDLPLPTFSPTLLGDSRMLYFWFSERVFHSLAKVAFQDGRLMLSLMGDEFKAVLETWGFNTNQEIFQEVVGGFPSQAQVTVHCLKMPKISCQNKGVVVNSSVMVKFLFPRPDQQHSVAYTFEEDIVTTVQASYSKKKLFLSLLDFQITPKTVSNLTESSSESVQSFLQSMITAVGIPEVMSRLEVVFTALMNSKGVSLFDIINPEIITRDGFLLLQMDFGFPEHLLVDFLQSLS
- experiment: In vitro CETP assay: 3H-labeled CE transfer from HDL to VLDL/LDL in human plasma
- Format: biochemical
- protocol_conditions: 24 h pre-incubation at 37° C.
Some compounds, each annotated with its measured IC50.

Sample answers from the record:
CCOC(=O)N1c2ccc(C(F)(F)F)cc2C(N(Cc2cc(C(F)(F)F)cc(C(F)(F)F)c2)c2ncc(OCC(=O)N3CCCC3C(=O)O)cn2)CC1CC (stereo not shown)    1.7 µM
CCOC(=O)N1c2ccc(C(F)(F)F)cc2C(N(Cc2cc(C(F)(F)F)cc(C(F)(F)F)c2)c2ncc(S(=O)(=O)CCCC(=O)O)cn2)CC1CC (stereo not shown)    0.22 µM
CCOC(=O)N1c2ccc(C(F)(F)F)cc2[C@@H](N(Cc2cc(C(F)(F)F)cc(C(F)(F)F)c2)c2ncc(OCc3cccc(C(=O)O)c3)cn2)C[C@H]1CC    0.23 µM
CCOC(=O)N1c2ccc(C(F)(F)F)cc2C(N(Cc2cc(C(F)(F)F)cc(C(F)(F)F)c2)c2ncc(OCC(=O)N(C)CC(=O)O)cn2)CC1CC (stereo not shown)    0.79 µM
CCOC(=O)N1c2ccc(C(F)(F)F)cc2[C@@H](N(Cc2cc(C(F)(F)F)cc(C(F)(F)F)c2)c2ncc(OCCCC(=O)O)cn2)C[C@H]1CC    0.064 µM

Asked: Reported IC50, compound CCOC(=O)N1c2ccc(C(F)(F)F)cc2C(N(Cc2cc(C(F)(F)F)cc(C(F)(F)F)c2)c2ncc(OCc3ccc(C(=O)O)cc3)cn2)CC1CC (stereo not shown) : ____
Given back: 0.21 µM

Asked: Query (compound): CCOC(=O)N1c2ccc(C(F)(F)F)cc2C(N(Cc2cc(C(F)(F)F)cc(C(F)(F)F)c2)c2ncc(OCC(=O)NCC(=O)O)cn2)CC1CC (stereo not shown) ; field requested: IC50
Given back: 0.45 µM
